This collection of values is drawn from paper PMC12096176.

Documented Selectivity D/M across a set of compounds
Test system: MOR
Assay type: binding
Conditions: ratio Ki DOR / Ki MOR
Answer field: number only, no words.

These recorded examples may help you get a feel for the data.
COMPOUND: Cc1coc2c(C(=O)N[C@H]3CC[C@@]4(O)[C@H]5Cc6ccc(O)c7c6[C@@]4(CCN5CC4CC4)[C@H]3O7)cccc12 [Compound 4]
ENDPOINT_VALUE: 130
//
COMPOUND: Cl.O=C(N[C@H]1CC[C@@]2(O)[C@H]3Cc4ccc(O)c5c4[C@@]2(CCN3CC2CC2)[C@H]1O5)c1cccc2c(Br)coc12 [Compound 2]
ENDPOINT_VALUE: 154
//
COMPOUND: O=C(N[C@H]1CC[C@@]2(O)[C@H]3Cc4ccc(O)c5c4[C@@]2(CCN3CC2CC2)[C@H]1O5)c1cccc2c(-c3ccccc3)coc12 [Compound 5]
ENDPOINT_VALUE: 173

Next compound, please.
-- ask Tell me reported Selectivity D/M for O=C(N[C@@H]1CC[C@@]2(O)[C@H]3Cc4ccc(O)c5c4[C@@]2(CCN3CC2CC2)[C@H]1O5)c1cccc2c(-c3ccncc3)coc12 [Compound 12] , tested with MOR.
-- reply 213

###

Target: UniProtKB P41145
Documented pKi across a set of compounds
Friendly reminder that pKi comes from taking -log10 of the concentration in mol/L.

COMPOUND: O=C(N[C@@H]1CC[C@@]2(O)[C@H]3Cc4ccc(O)c5c4[C@@]2(CCN3CC2CC2)[C@H]1O5)c1cccc2c(-c3ccncc3)coc12 [Compound 12]
pKi: 8.13
//
COMPOUND: O=C(N[C@H]1CC[C@@]2(O)[C@H]3Cc4ccc(O)c5c4[C@@]2(CCN3CC2CC2)[C@H]1O5)c1cccc2c(Cl)coc12 [Compound 3]
pKi: 7.77
//
COMPOUND: O=C(N[C@@H]1CC[C@@]2(O)[C@H]3Cc4ccc(O)c5c4[C@@]2(CCN3CC2CC2)[C@H]1O5)c1cccc2c(Cl)coc12 [Compound 9]
pKi: 9.80
//
COMPOUND: Cc1coc2c(C(=O)N[C@H]3CC[C@@]4(O)[C@H]5Cc6ccc(O)c7c6[C@@]4(CCN5CC4CC4)[C@H]3O7)cccc12 [Compound 4]
pKi: 7.80
//
COMPOUND: O=C(N[C@@H]1CC[C@@]2(O)[C@H]3Cc4ccc(O)c5c4[C@@]2(CCN3CC2CC2)[C@H]1O5)c1cccc2c(-c3ccccc3)coc12 [Compound 11]
pKi: 7.71
//
COMPOUND: O=C(N[C@H]1CC[C@@]2(O)[C@H]3Cc4ccc(O)c5c4[C@@]2(CCN3CC2CC2)[C@H]1O5)c1cccc2c(-c3ccncc3)coc12 [Compound 6]
pKi: 8.06

-- ask Tell me reported pKi for Cl.O=C(N[C@@H]1CC[C@@]2(O)[C@H]3Cc4ccc(O)c5c4[C@@]2(CCN3CC2CC2)[C@H]1O5)c1cccc2c(Br)coc12 [Compound 8] , tested with UniProtKB P41145.
-- reply 9.68

-- ask Tell me reported pKi for Cl.O=C(N[C@H]1CC[C@@]2(O)[C@H]3Cc4ccc(O)c5c4[C@@]2(CCN3CC2CC2)[C@H]1O5)c1cccc2c(Br)coc12 [Compound 2] , tested with UniProtKB P41145.
-- reply 7.76

-- ask Tell me reported pKi for Cc1coc2c(C(=O)N[C@@H]3CC[C@@]4(O)[C@H]5Cc6ccc(O)c7c6[C@@]4(CCN5CC4CC4)[C@H]3O7)cccc12 [Compound 10] , tested with UniProtKB P41145.
-- reply 9.36

-- ask Tell me reported pKi for O=C(N[C@H]1CC[C@@]2(O)[C@H]3Cc4ccc(O)c5c4[C@@]2(CCN3CC2CC2)[C@H]1O5)c1cccc2c(-c3ccccc3)coc12 [Compound 5] , tested with UniProtKB P41145.
-- reply 7.47

###

Consider compounds characterized by their pKi with DOR (Homo sapiens, UniProt P41143).
Friendly reminder that pKi comes from taking -log10 of the concentration in mol/L.

SMILES_STRING: Cc1coc2c(C(=O)N[C@H]3CC[C@@]4(O)[C@H]5Cc6ccc(O)c7c6[C@@]4(CCN5CC4CC4)[C@H]3O7)cccc12
TARGET_ENTITY: DOR (Homo sapiens, UniProt P41143)
ENDPOINT_VALUE: 7.06
//
SMILES_STRING: Cl.O=C(N[C@H]1CC[C@@]2(O)[C@H]3Cc4ccc(O)c5c4[C@@]2(CCN3CC2CC2)[C@H]1O5)c1cccc2c(Br)coc12
TARGET_ENTITY: DOR (Homo sapiens, UniProt P41143)
ENDPOINT_VALUE: 7.06
//
SMILES_STRING: O=C(N[C@@H]1CC[C@@]2(O)[C@H]3Cc4ccc(O)c5c4[C@@]2(CCN3CC2CC2)[C@H]1O5)c1cccc2c(-c3ccccc3)coc12
TARGET_ENTITY: DOR (Homo sapiens, UniProt P41143)
ENDPOINT_VALUE: 7.66
//
SMILES_STRING: O=C(N[C@H]1CC[C@@]2(O)[C@H]3Cc4ccc(O)c5c4[C@@]2(CCN3CC2CC2)[C@H]1O5)c1cccc2c(-c3ccccc3)coc12
TARGET_ENTITY: DOR (Homo sapiens, UniProt P41143)
ENDPOINT_VALUE: 6.62
//
SMILES_STRING: Cl.O=C(N[C@@H]1CC[C@@]2(O)[C@H]3Cc4ccc(O)c5c4[C@@]2(CCN3CC2CC2)[C@H]1O5)c1cccc2c(Br)coc12
TARGET_ENTITY: DOR (Homo sapiens, UniProt P41143)
ENDPOINT_VALUE: 8.27

Next compound, please.
-- ask Tell me reported pKi for "O=C(N[C@H]1CC[C@@]2(O)[C@H]3Cc4ccc(O)c5c4[C@@]2(CCN3CC2CC2)[C@H]1O5)c1cccc2c(Cl)coc12" , tested with DOR (Homo sapiens, UniProt P41143).
-- reply 6.86

###

Documented Selectivity D/M across a set of compounds
Tested on: MOR
Format: binding
Settings: ratio Ki DOR / Ki MOR
Answer field: number only, no words.

These recorded examples may help you get a feel for the data.
SMILES_STRING: O=C(N[C@@H]1CC[C@@]2(O)[C@H]3Cc4ccc(O)c5c4[C@@]2(CCN3CC2CC2)[C@H]1O5)c1cccc2c(-c3ccccc3)coc12
TARGET_ENTITY: MOR
Selectivity D/M: 123
//
SMILES_STRING: O=C(N[C@H]1CC[C@@]2(O)[C@H]3Cc4ccc(O)c5c4[C@@]2(CCN3CC2CC2)[C@H]1O5)c1cccc2c(Cl)coc12
TARGET_ENTITY: MOR
Selectivity D/M: 277
//
SMILES_STRING: O=C(N[C@H]1CC[C@@]2(O)[C@H]3Cc4ccc(O)c5c4[C@@]2(CCN3CC2CC2)[C@H]1O5)c1cccc2c(-c3ccncc3)coc12
TARGET_ENTITY: MOR
Selectivity D/M: 41
//
SMILES_STRING: Cc1coc2c(C(=O)N[C@@H]3CC[C@@]4(O)[C@H]5Cc6ccc(O)c7c6[C@@]4(CCN5CC4CC4)[C@H]3O7)cccc12
TARGET_ENTITY: MOR
Selectivity D/M: 57
//
SMILES_STRING: O=C(N[C@@H]1CC[C@@]2(O)[C@H]3Cc4ccc(O)c5c4[C@@]2(CCN3CC2CC2)[C@H]1O5)c1cccc2c(Cl)coc12
TARGET_ENTITY: MOR
Selectivity D/M: 37

-- ask Any idea what Selectivity D/M was measured for "Cl.O=C(N[C@@H]1CC[C@@]2(O)[C@H]3Cc4ccc(O)c5c4[C@@]2(CCN3CC2CC2)[C@H]1O5)c1cccc2c(Br)coc12" ?
-- reply 27

###

Molecular target: MOR (Mus musculus, UniProt P42866)
Assay: MOR [35S]GTPγS functional assay, MOR-CHO membranes
Assay type: biochemical
Conditions: read-out: MOR [35S]GTPγS Emax, relative to maximal stimulation produced by DAMGO
EXPERIMENTAL_ENDPOINT: Emax (%)
Respond with the bare value in %.

These recorded examples may help you get a feel for the data.
COMPOUND: O=C(N[C@H]1CC[C@@]2(O)[C@H]3Cc4ccc(O)c5c4[C@@]2(CCN3CC2CC2)[C@H]1O5)c1cccc2c(-c3ccccc3)coc12 [Compound 5]
OUTPUT_UNIT: %
ENDPOINT_VALUE: 17.3
--
COMPOUND: O=C(N[C@H]1CC[C@@]2(O)[C@H]3Cc4ccc(O)c5c4[C@@]2(CCN3CC2CC2)[C@H]1O5)c1cccc2c(-c3ccncc3)coc12 [Compound 6]
OUTPUT_UNIT: %
ENDPOINT_VALUE: 14.8
--
COMPOUND: O=C(N[C@@H]1CC[C@@]2(O)[C@H]3Cc4ccc(O)c5c4[C@@]2(CCN3CC2CC2)[C@H]1O5)c1cccc2c(Cl)coc12 [Compound 9]
OUTPUT_UNIT: %
ENDPOINT_VALUE: 51.2
--
COMPOUND: O=C(N[C@H]1CC[C@@]2(O)[C@H]3Cc4ccc(O)c5c4[C@@]2(CCN3CC2CC2)[C@H]1O5)c1cccc2c(Cl)coc12 [Compound 3]
OUTPUT_UNIT: %
ENDPOINT_VALUE: 21.6
--
COMPOUND: Cc1coc2c(C(=O)N[C@@H]3CC[C@@]4(O)[C@H]5Cc6ccc(O)c7c6[C@@]4(CCN5CC4CC4)[C@H]3O7)cccc12 [Compound 10]
OUTPUT_UNIT: %
ENDPOINT_VALUE: 32.7

-- ask Tell me reported Emax for Cc1coc2c(C(=O)N[C@H]3CC[C@@]4(O)[C@H]5Cc6ccc(O)c7c6[C@@]4(CCN5CC4CC4)[C@H]3O7)cccc12 [Compound 4] , tested with MOR (Mus musculus, UniProt P42866).
-- reply 23.5
